- Target under test: 11β-HSD 1 (Homo sapiens, UniProt P28845)
- Construct: detecting cortisol generated from cortisterone by human liver microsomes; from tissue; host or cells: human liver microsomes
- Sequence (P28845 whole entry): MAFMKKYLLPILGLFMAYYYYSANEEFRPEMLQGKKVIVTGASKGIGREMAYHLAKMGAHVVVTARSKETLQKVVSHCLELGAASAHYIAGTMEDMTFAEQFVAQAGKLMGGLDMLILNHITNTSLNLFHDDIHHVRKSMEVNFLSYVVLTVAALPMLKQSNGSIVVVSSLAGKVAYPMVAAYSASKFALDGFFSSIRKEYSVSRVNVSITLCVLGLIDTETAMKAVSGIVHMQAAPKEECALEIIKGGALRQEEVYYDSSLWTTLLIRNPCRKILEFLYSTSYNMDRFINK
- Procedure text: In vitro inhibition of 11β-HSD 1, HTRF detection of cortisol generated by human liver microsomes
- Assay type: biochemical
- Experimental conditions: 1 μM test compound, 100% indicates no inhibition, zero or below zero indicates complete inhibition (relative to carbenoxolone)
// Inhibitory activity on 11β-HSD 1, % CTL lookup, one value per entry
Please make sure the unit comes right after the number.

Some solved entries appear below for comparison.
Compound: O=C1Cc2cc(C(=O)N3[C@@H]4CC[C@H]3C[C@@H](c3ccc(F)cc3)C4)ccc2N1 [Example 47]
Inhibitory activity on 11β-HSD 1, % CTL: −17 % CTL
//
Compound: O=C(c1ccc2c(c1)OCCO2)N1[C@@H]2CC[C@H]1C[C@@H](c1ccc(Oc3ccccc3)cc1)C2 [Example 152]
Inhibitory activity on 11β-HSD 1, % CTL: 5 % CTL

Tested on 11β-HSD 1 (Homo sapiens, UniProt P28845), the item O=C(c1cccc(CO)c1)N1[C@@H]2CC[C@H]1C[C@@H](c1ccc(F)cc1)C2 [Example 82] showed Inhibitory activity on 11β-HSD 1, % CTL equal to 5 % CTL

Entry Cc1cc(C(F)F)n2nc(C(=O)N3[C@@H]4CC[C@H]3C[C@@H](c3ccc(F)cc3)C4)nc2n1 [Example 162] , 11β-HSD 1 (Homo sapiens, UniProt P28845) data, Inhibitory activity on 11β-HSD 1, % CTL value: 96 % CTL

Inhibitory activity on 11β-HSD 1, % CTL for 11β-HSD 1 (Homo sapiens, UniProt P28845) with input CC(=O)NCc1ccc(C(=O)N2[C@@H]3CC[C@H]2C[C@@H](c2ccc(F)cc2)C3)cc1 [Example 71] equals 41 % CTL

The reported Inhibitory activity on 11β-HSD 1, % CTL value, 11β-HSD 1 (Homo sapiens, UniProt P28845), for Nc1c(Cl)cc(C(=O)N2[C@@H]3CC[C@H]2C[C@@H](c2ccc(F)cc2)C3)cc1Cl [Example 178] reads −22 % CTL

The reported Inhibitory activity on 11β-HSD 1, % CTL value, 11β-HSD 1 (Homo sapiens, UniProt P28845), for COc1cccc(C(=O)N2[C@@H]3CC[C@H]2C[C@@H](c2ccc(F)cc2)C3)c1 [Example 109] reads −33 % CTL

Known value: 11β-HSD 1 (Homo sapiens, UniProt P28845) Inhibitory activity on 11β-HSD 1, % CTL of the compound O=C(c1ccc2c(c1)OCCO2)N1[C@@H]2CC[C@H]1C[C@@H](c1ccc(Br)cc1)C2 [Example 155] equals −17 % CTL

COc1cccc([C@H]2C[C@H]3CC[C@@H](C2)N3C(=O)c2ccc3c(c2)OCCO3)c1 [Example 139] on 11β-HSD 1 (Homo sapiens, UniProt P28845) gives Inhibitory activity on 11β-HSD 1, % CTL = 21 % CTL

Form: item CC(C)c1ccc([C@H]2C[C@H]3CC[C@@H](C2)N3C(=O)c2ccc3c(c2)OCCO3)cc1 [Example 136] ; test system 11β-HSD 1 (Homo sapiens, UniProt P28845); Inhibitory activity on 11β-HSD 1, % CTL: 17 % CTL

# lookup: Cc1cc(C(=O)N2[C@@H]3CC[C@H]2C[C@@H](c2ccc(F)cc2)C3)ccc1O [Example 166] on 11β-HSD 1 (Homo sapiens, UniProt P28845), Inhibitory activity on 11β-HSD 1, % CTL = −33 % CTL

Entry Cc1nc2ccc(C(=O)N3[C@@H]4CC[C@H]3C[C@@H](c3ccc(F)cc3)C4)cc2[nH]1 [Example 74] under 11β-HSD 1 (Homo sapiens, UniProt P28845) had Inhibitory activity on 11β-HSD 1, % CTL of 69 % CTL

Entry Cc1ccc([C@H]2C[C@H]3CC[C@@H](C2)N3C(=O)c2ccc3c(c2)OCCO3)cc1 [Example 138] : Inhibitory activity on 11β-HSD 1, % CTL on 11β-HSD 1 (Homo sapiens, UniProt P28845) = 4 % CTL

Kindly note: 11β-HSD 1 (Homo sapiens, UniProt P28845), CS(=O)(=O)c1cccc(C(=O)N2[C@@H]3CC[C@H]2C[C@@H](c2ccc(F)cc2)C3)c1 [Example 67] , Inhibitory activity on 11β-HSD 1, % CTL value reported: 85 % CTL

The reported 11β-HSD 1 (Homo sapiens, UniProt P28845) Inhibitory activity on 11β-HSD 1, % CTL of CC(C)CN1Cc2cccc(C(=O)N3[C@@H]4CC[C@H]3C[C@@H](c3ccc(F)cc3)C4)c2C1=O [Example 29] is 97 % CTL

COC(=O)c1ccc([C@H]2C[C@H]3CC[C@@H](C2)N3C(=O)c2ccc3c(c2)OCCO3)cc1 [Example 154] on 11β-HSD 1 (Homo sapiens, UniProt P28845) gives Inhibitory activity on 11β-HSD 1, % CTL = 59 % CTL

Lab entry: 11β-HSD 1 (Homo sapiens, UniProt P28845) assay, compound CC(=O)c1ccc(C(=O)N2[C@@H]3CC[C@H]2C[C@@H](c2ccc(F)cc2)C3)cc1 [Example 128] , Inhibitory activity on 11β-HSD 1, % CTL = 79 % CTL

Recorded Inhibitory activity on 11β-HSD 1, % CTL for CC(C)(C)Oc1ccc(C(=O)N2[C@@H]3CC[C@H]2C[C@@H](c2ccc(F)cc2)C3)cc1 [Example 49] on 11β-HSD 1 (Homo sapiens, UniProt P28845) was 67 % CTL

----------
- Target under test: 11β-HSD 1 (Homo sapiens, UniProt P28845)
- Construct: detecting cortisol generated from cortisterone by human liver microsomes; from tissue; host or cells: human liver microsomes
- Procedure text: In vitro inhibition of 11β-HSD 1, HTRF detection of cortisol generated by human liver microsomes
- Type: biochemical
- Experimental conditions: 1 μM test compound, 100% indicates no inhibition, zero or below zero indicates complete inhibition (relative to carbenoxolone)
Values of Inhibitory activity on 11β-HSD 1, % CTL greater than or equal to 30 % CTL map to Y; values below map to N.

Answered cases to consult:
Molecule: O=C(c1ccc2scnc2c1)N1[C@@H]2CC[C@H]1C[C@@H](c1ccc(F)cc1)C2 [Example 93]
Group: Y

Molecule: O=C(c1ccc2c(c1)OCCO2)N1[C@@H]2CC[C@H]1C[C@@H](c1cccnc1)C2 [Example 153]
Group: N

Molecule: O=C(c1nccc2ccccc12)N1[C@@H]2CC[C@H]1C[C@@H](c1ccc(F)cc1)C2 [Example 33]
Group: Y

Inhibitory activity on 11β-HSD 1, % CTL >= 30 % CTL for CC(C)(C)c1cc(C(=O)N2[C@@H]3CC[C@H]2C[C@@H](c2ccc(F)cc2)C3)[nH]n1 [Example 11] ?
Y

Does O=C(c1n[nH]c2c1CCC2)N1[C@@H]2CC[C@H]1C[C@@H](c1ccc(F)cc1)C2 [Example 6] have a reported Inhibitory activity on 11β-HSD 1, % CTL of at least 30 % CTL?
Y

State whether the measured Inhibitory activity on 11β-HSD 1, % CTL reaches 30 % CTL, counting equality as reaching it, for O=C(c1cccc(F)c1)N1[C@@H]2CC[C@H]1C[C@@H](c1ccc(F)cc1)C2 [Example 104]
Y

Form field: Inhibitory activity on 11β-HSD 1, % CTL at least 30 % CTL? Entry: COc1ccc([C@@H]2C[C@H]3CC[C@@H](C2)N3C(=O)c2ccc3c(c2)OCCO3)cc1 [Example 135]
N

----------
Inhibitory activity on 11β-HSD 1, % CTL values by entry
- Target under test: 11β-HSD 1 (Homo sapiens, UniProt P28845)
- Construct: detecting cortisol generated from cortisterone by human liver microsomes; from tissue; host or cells: human liver microsomes
- Procedure text: In vitro inhibition of 11β-HSD 1, HTRF detection of cortisol generated by human liver microsomes
- Assay type: biochemical
- Experimental conditions: 1 μM test compound, 100% indicates no inhibition, zero or below zero indicates complete inhibition (relative to carbenoxolone)
Provide a numeric answer, followed by its unit.

Molecule: COc1c(F)cc(C(=O)N2[C@@H]3CC[C@H]2C[C@@H](c2ccc(F)cc2)C3)cc1F [Example 168]
Reported property: Inhibitory activity on 11β-HSD 1, % CTL
Value: 6 % CTL
//
Molecule: CCn1ccc2ccc(C(=O)N3[C@@H]4CC[C@H]3C[C@@H](c3ccc(F)cc3)C4)cc21 [Example 51]
Reported property: Inhibitory activity on 11β-HSD 1, % CTL
Value: 41 % CTL
//
Molecule: O=C(c1ccc2c(c1)OCCO2)N1[C@@H]2CC[C@H]1C[C@@H](c1cccc(O)c1)C2 [Example 141]
Reported property: Inhibitory activity on 11β-HSD 1, % CTL
Value: 29 % CTL
//
Molecule: O=C(c1cccc(-c2cc[nH]n2)c1)N1[C@@H]2CC[C@H]1C[C@@H](c1ccc(F)cc1)C2 [Example 90]
Reported property: Inhibitory activity on 11β-HSD 1, % CTL
Value: 42 % CTL
//
Molecule: O=C(c1ccc2c(c1)OCCO2)N1[C@@H]2CC[C@H]1C[C@@H](c1ccc(OC(F)(F)F)cc1)C2 [Example 140]
Reported property: Inhibitory activity on 11β-HSD 1, % CTL
Value: −5 % CTL

The molecule listed as O=C(c1cnn2cccnc12)N1[C@@H]2CC[C@H]1C[C@@H](c1ccc(F)cc1)C2 [Example 35] shows Inhibitory activity on 11β-HSD 1, % CTL equal to 62 % CTL

The reported value for O=C(c1ccc2c(c1)CCCN2)N1[C@@H]2CC[C@H]1C[C@@H](c1ccc(F)cc1)C2 [Example 54] in terms of Inhibitory activity on 11β-HSD 1, % CTL is −56 % CTL

All figures here come from patent US8609690B2.
